- System: BMDCs
- assay-details: Cell uptake of Cy5-labeled nanoparticles by flow cytometry
- Type: cell-based, mouse
- details: co-incubation with Cy5-labeled AnCHNPs 5 μg/mL
observable: effect of endocytosis inhibitor on AnCHNPs uptake by DCs

O=C(N/N=C/c1ccc(O)c(O)c1)c1cc2ccccc2cc1O	inhibited
CN(C)CCCN1c2ccccc2Sc2ccc(Cl)cc21	inhibited
